# experimental-protocol: Evaluation of metabolic stability in human liver microsome (human liver S9 components)
# Format: in vitro ADME
# recorded-conditions: liver S9 components (headed liver microsome); human liver S9 components 4 mg/mL, pH 7.4, 37° C., LC-MS/MS; read-out: T1/2 (h) Liver microsome (converted)
reported-property: half-life at 100 µM (h)
Give the value, in units of h, as a plain number.

Summary for this compound, "C=C1[C@H](CO[P@@](=O)(N[C@@H](C)C(=O)OC)Oc2ccc(F)cc2)[C@@H](O)C[C@@H]1n1cnc2c(=O)[nH]c(N)nc21" : half-life at 100 µM is 0.13

Summary for this compound, "C=C1[C@H](CO[P@@](=O)(N[C@@H](C)C(=O)OC)Oc2ccc(Cl)cc2)[C@@H](O)C[C@@H]1n1cnc2c(=O)[nH]c(N)nc21" : half-life at 100 µM is 0.06

Summary for this compound, "C=C1[C@H](CO[P@@](=O)(N[C@@H](C)C(=O)OC)Oc2ccc(Br)cc2)[C@@H](O)C[C@@H]1n1cnc2c(=O)[nH]c(N)nc21" : half-life at 100 µM is 0.06

Summary for this compound, "C=C1[C@H](CO[P@@](=O)(N[C@@H](C)C(=O)OC)Oc2ccc(OC)cc2)[C@@H](O)C[C@@H]1n1cnc2c(=O)[nH]c(N)nc21" : half-life at 100 µM is 0.03

Summary for this compound, "C=C1[C@H](CO[P@@](=O)(N[C@@H](C)C(=O)OC)Oc2ccc(C)cc2)[C@@H](O)C[C@@H]1n1cnc2c(=O)[nH]c(N)nc21" : half-life at 100 µM is 0.19

Summary for this compound, "C=C1[C@H](CO[P@@](=O)(N[C@@H](C)C(=O)OC)Oc2ccccc2)[C@@H](O)C[C@@H]1n1cnc2c(=O)[nH]c(N)nc21" : half-life at 100 µM is 0.27

Summary for this compound, C=C1[C@H](CO[P@@](=O)(N[C@@H](C)C(=O)OC(C)C)Oc2ccccc2)[C@@H](O)C[C@@H]1n1cnc2c(=O)[nH]c(N)nc21 [I-5-B, reference compound] : half-life at 100 µM is 0.4
